Test system: OCI-AML2
EXPERIMENT_DESCRIPTION: cell viability relative to vehicle control; higher = less cytotoxic;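 note: after 48 h exposure read by CellTiter-Glo luminescence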
EXPERIMENTAL_PARAMETERS: 10 µM; SRSF2 genotype: P95H/wt
Where a name gives a salt, the structure may show the parent alone.
REPORTED_ENDPOINT: cell viability (%)
// units = %; emit number, no label

Answered examples (5):
{"MOLECULE": "O=c1ncccn1[C@@H]1O[C@H](CO)[C@@H](O)[C@H]1O [Zebularine]", "ENDPOINT_UNIT": "%", "cell viability": 96.6}
{"MOLECULE": "C[C@H](CCC(=O)O)[C@H]1CC[C@H]2[C@@H]3[C@@H](O)C[C@@H]4C[C@H](O)CC[C@]4(C)[C@H]3CC[C@]12C [Ursodiol (Actigal Urso)]", "ENDPOINT_UNIT": "%", "cell viability": 98.1}
{"MOLECULE": "NC1=N[C@@](c2cccc(-c3cncnc3)c2)(c2ccnc(C(F)F)c2)c2cccc(F)c21", "ENDPOINT_UNIT": "%", "cell viability": 71.1}
{"MOLECULE": "O=c1cc(-c2ccc(O)c(O)c2)oc2cc(O)c([C@@H]3O[C@H](CO)[C@@H](O)[C@H](O)[C@H]3O)c(O)c12 [Homoorientin]", "ENDPOINT_UNIT": "%", "cell viability": 86.7}
{"MOLECULE": "COC1=C(OC)C(=O)C(CCCCCCCCCCO)=C(C)C1=O [Idebenone]", "ENDPOINT_UNIT": "%", "cell viability": 68.8}

Record summary for Nc1nc(=O)[nH]c2c1ncn2[C@@H]1O[C@H](CO)[C@@H](O)[C@H]1O [Isoguanosine] : reported cell viability = 106

Recorded result, CC(=O)N[C@@H](CS)C(=O)O [Acetylcysteine] , cell viability: 102

Sample C[C@@H]1CCO[C@H]2Cn3cc(C(=O)NCc4ccc(F)cc4F)c(=O)c(O)c3C(=O)N12 ; cell viability observed: 92

The molecule listed as O=C(O)[C@@]1(CCCCCCOc2ccc(Cl)cc2)CO1 [Etomoxir (Na salt)] has a reported cell viability of 107

Kindly note the recorded cell viability for COc1cc(C(=O)OCCCCNC(=N)N)cc(OC)c1O [Leonurine] , which is 94.4

Sample COc1cc2ncnc(Sc3nnc(C)s3)c2cc1OC ; cell viability observed: 3.76

----------
Test system: MARIMO
EXPERIMENT_DESCRIPTION: cell viability relative to vehicle control; higher = less cytotoxic
EXPERIMENTAL_PARAMETERS: 10 µM; SRSF2 genotype: SRSF2 P95H/wt
A collection of compounds and their measured cell viability
Please give a number only; it is taken to be in %.

Record excerpt, results attached:
{"COMPOUND": "CC(=O)N1CCN(c2ccc(OCC3COC(Cn4ccnc4)(c4ccc(Cl)cc4Cl)O3)cc2)CC1 (stereo not given)", "ENDPOINT_UNIT": "%", "cell viability": 34.9}
{"COMPOUND": "CO/N=C(\\C(=O)N[C@@H]1C(=O)N2C(C(=O)OCOC(=O)C(C)(C)C)=C(/C=C\\c3scnc3C)CS[C@H]12)c1csc(N)n1", "ENDPOINT_UNIT": "%", "cell viability": 104}
{"COMPOUND": "COC(=O)CC[C@H](NC(=O)[C@H](CC(=O)OC)NC(=O)OCc1ccccc1)C(=O)N[C@H](C(=O)N[C@@H](CC(=O)OC)C(=O)CF)C(C)C", "ENDPOINT_UNIT": "%", "cell viability": 99.4}
{"COMPOUND": "Cc1cc(NC(=O)Nc2ccc(N(C)C)cc2)c2cc(F)cc(F)c2n1", "ENDPOINT_UNIT": "%", "cell viability": 98.3}
{"COMPOUND": "CC(C(=O)O)c1cccc(Oc2ccccc2)c1 (stereo not given)", "ENDPOINT_UNIT": "%", "cell viability": 88.2}

Next compound, please.
The value of cell viability measured for the compound COc1ccc(NS(=O)(=O)c2sc3ccc(Cl)cc3c2C)cc1N1CCNCC1 turned out to be 100

----------
Tested on: OCI-AML2
EXPERIMENT_DESCRIPTION: cell viability relative to vehicle control; higher = less cytotoxic
EXPERIMENTAL_PARAMETERS: 10 µM; SRSF2 genotype: P95H/wt
Criterion: cell viability strictly less than 90%. Met: condition met. Not met: condition not met.

Worked set:
{"MOLECULE": "N#Cc1cccc(-c2c[nH]c3ncnc(N4CCOCC4)c23)c1", "CLASS_LABEL": "condition not met"}
{"MOLECULE": "C[C@H](C[C@H](O)[C@H]1OC1(C)C)C1=C2C[C@H](O)[C@H]3[C@@]4(C)CCC(=O)C(C)(C)[C@@H]4CC[C@]3(C)[C@@]2(C)CC1", "CLASS_LABEL": "condition met"}
{"MOLECULE": "c1coc(CNc2ncnc3[nH]cnc23)c1", "CLASS_LABEL": "condition not met"}

Here's the next entry for you.
Exercise: Regarding C=C1CCC[C@]2(C)C[C@@H]3OC(=O)C(C)=C3C[C@@H]12 [Atractylenolide II] , kindly confirm whether its cell viability is beneath 90%.
Key: condition not met

----------
Test system: MARIMO
EXPERIMENT_DESCRIPTION: cell viability relative to vehicle control; higher = less cytotoxic
EXPERIMENTAL_PARAMETERS: 10 µM; SRSF2 genotype: SRSF2 P95H/wt
Overview of reported cell viability across a group of compounds:
Write the number in % without appending the unit.

Sample answers from the record:
{"COMPOUND": "CCOC(=O)COc1ccc(/C=C2/SC(=S)NC2=O)cc1OC", "TESTED_ON": "MARIMO", "cell viability, %": 88.8}
{"COMPOUND": "CCCCCCCCCCCCCCCc1cccc(O)c1C(=O)O [Anacardic Acid]", "TESTED_ON": "MARIMO", "cell viability, %": 81.7}
{"COMPOUND": "O=C(Nc1cccc(C2=NCCN2)c1)Nc1cccc(C2=NCCN2)c1 [Imidocarb dipropionate]", "TESTED_ON": "MARIMO", "cell viability, %": 91.5}

# context switch: different compound, same cell viability
Lab book: cell viability of CC(=O)S[C@@H]1CC2=CC(=O)CC[C@]2(C)[C@H]2CC[C@@]3(C)[C@@H](CC[C@@]34CCC(=O)O4)[C@H]12 [spironolactone] noted as 78.3

----------
Tested on: MOLM14
EXPERIMENT_DESCRIPTION: cell viability relative to vehicle control; higher = less cytotoxic
EXPERIMENTAL_PARAMETERS: 10 µM; SRSF2 genotype: SRSF2 P95H/wt
Counter-ions that a name gives are not always drawn.
Here the recorded cell viability is given for each entry.
Could you give me the number in %? Just the number is fine.

Guide cases for cell viability, answers given:
{"COMPOUND": "Cc1coc2c1C(=O)C(=O)c1c-2ccc2c1CCCC2(C)C [Tanshinone IIA (Tanshinone B)]", "VALUE": 88.8}
{"COMPOUND": "CO/N=C(\\C(=O)N[C@@H]1C(=O)N2C(C(=O)O)=C(CSC(=O)c3ccco3)CS[C@H]12)c1csc(N)n1 [Ceftiofur hydrochloride]", "VALUE": 91.5}
{"COMPOUND": "C[C@]12CC[C@H](O)CC1=CC[C@@H]1[C@@H]2CC[C@]2(C)C(n3cnc4ccccc43)=CC[C@@H]12 [Galeterone (TOK-001)]", "VALUE": 88.2}

// sample CN1CCN(C(=O)c2cc3cc(Cl)ccc3[nH]2)CC1 , its cell viability was 92.6

# cell viability (compound: C=C[C@@]1(C)CC(=O)[C@]2(O)[C@@]3(C)[C@@H](O)CCC(C)(C)[C@@H]3[C@H](O)[C@H](OC(C)=O)[C@@]2(C)O1 [Forskolin] ) is 92.6

----------
Tested on: K562
EXPERIMENT_DESCRIPTION: cell viability relative to vehicle control; higher = less cytotoxic
EXPERIMENTAL_PARAMETERS: 10 µM; SRSF2 genotype: SRSF2 wt/wt
Collected cell viability values appear next to each entry.
# value in %; strip the unit string

{"COMPOUND": "Cc1cc(NS(=O)(=O)c2ccc(N)cc2)nc(C)n1 [sulfaisodimidine]", "TESTED_ON": "K562", "ENDPOINT_UNIT": "%", "cell viability": 112}

Per the reported K562 data, Cn1cnc(=N)c2[nH]cnc21 [3-Methyladenine (3-MA)] has cell viability of 106

Let me check: NC(=O)c1[nH]cnc1N [4-Amino-5-imidazolecarboxamide] , system K562, measured cell viability is 105

Observed cell viability on K562, entry CC(NC(=O)c1ccccc1/N=C/c1c(O)ccc2ccccc12)c1ccccc1 (stereo not drawn) [Sirtinol] , equals 103

Record CC(C)(O)CC(=O)NCCn1ccc2ncnc(Nc3ccc(Oc4cccc(C(F)(F)F)c4)c(Cl)c3)c21 ; system K562; cell viability = 72.6

Reported cell viability (K562) for entry CS(=O)(=O)CCNCc1ccc(-c2ccc3ncnc(Nc4ccc(OCc5cccc(F)c5)c(Cl)c4)c3c2)o1 is 56.7

The observed cell viability for OC[C@@H](O)[C@@H](O[C@H]1O[C@H](CO)[C@@H](O)[C@H](O)[C@H]1O)[C@H](O)[C@@H](O)CO [Maltitol] when tested with K562 stands at 98.6

Field cell viability (K562), entry COc1cc2c(cc1OC)-c1cc3ccc4c(c3c[n+]1CC2)OCO4 [Epiberberine] : 85.8
